System: Rattus norvegicus
procedure summary: In vivo angiotensin II like activity determined in rat blood pressure assay measured as increase in BP by 1 ug iv of compound
Assay type: functional
Square brackets hold non-standard residues; d marks the D form. Peptide text beside a SMILES is read from it. dThz(5,5-Me2) = CC1(C)SCN[C@H]1C(=O)O; hPhe = N[C@@H](CCc1ccccc1)C(=O)O; Sar = CNCC(=O)O
readout label: BP (mmHg)
One number for each entry, in mmHg.

Some solved entries appear below for comparison.
• CC[C@H](C)[C@H](NC(=O)[C@@H]1CCCN1C(=O)[C@H](Cc1c[nH]cn1)NC(=O)[C@H](Cc1c[nH]cn1)NC(=O)[C@H](Cc1ccc(O)cc1)NC(=O)[C@@H](NC(=O)[C@H](CCCN=C(N)N)NC(=O)CNC)C(C)C)C(=O)O = 10
• CC[C@H](C)[C@H](NC(=O)[C@@H]1CCCN1C(=O)[C@H](Cc1c[nH]cn1)NC(=O)[C@H](Cc1c[nH]c2ccccc12)NC(=O)[C@H](Cc1ccc(O)cc1)NC(=O)[C@@H](NC(=O)[C@H](CCCN=C(N)N)NC(=O)CNC)C(C)C)C(=O)O = 7.5
• CC[C@H](C)[C@H](NC(=O)[C@@H]1CCCN1C(=O)[C@H](Cc1c[nH]cn1)NC(=O)[C@H](Cc1ccccc1)NC(=O)[C@H](Cc1ccc(O)cc1)NC(=O)[C@@H](NC(=O)[C@H](CCCN=C(N)N)NC(=O)CNC)C(C)C)C(=O)O (H-[Sar]RVYFHPI-OH) = 7.5
• CC[C@H](C)[C@H](NC(=O)[C@@H]1CCCN1C(=O)[C@H](Cc1c[nH]cn1)NC(=O)[C@H](CCCN=C(N)N)NC(=O)[C@H](Cc1ccc(O)cc1)NC(=O)[C@@H](NC(=O)[C@H](CCCN=C(N)N)NC(=O)CNC)C(C)C)C(=O)O (H-[Sar]RVYRHPI-OH) = 10
• CNCC(=O)N[C@@H](CCCN=C(N)N)C(=O)N[C@H](C(=O)N[C@@H](Cc1ccc(O)cc1)C(=O)N1CSC(C)(C)[C@@H]1C(=O)N[C@@H](Cc1c[nH]cn1)C(=O)N1CCC[C@H]1C(=O)N[C@@H](Cc1ccccc1)C(=O)O)C(C)C (H-[Sar]RVY[dThz(5,5-Me2)]HPF-OH) = 100

Each compound below has a recorded value; state its BP.
1. CC[C@H](C)[C@H](NC(=O)[C@@H]1CCCN1C(=O)[C@H](Cc1c[nH]cn1)NC(=O)[C@H](CCc1ccccc1)NC(=O)[C@H](Cc1ccc(O)cc1)NC(=O)[C@@H](NC(=O)[C@H](CCCN=C(N)N)NC(=O)CNC)C(C)C)C(=O)O (H-[Sar]RVY[hPhe]HPI-OH)
2. CC[C@H](C)[C@H](NC(=O)[C@@H]1CCCN1C(=O)[C@H](Cc1c[nH]cn1)NC(=O)[C@H](NC(=O)[C@H](Cc1ccc(O)cc1)NC(=O)[C@@H](NC(=O)[C@H](CCCN=C(N)N)NC(=O)CNC)C(C)C)c1ccccc1)C(=O)O

Reply:
1: 10; 2: 8.5
